Just for reference, patent US20260201008A1 is where these values come from.

# subjectOfTest: human secretin receptor (hSCTR) (human, UniProt P47872 23-440)
# Sequence (P47872 23-440): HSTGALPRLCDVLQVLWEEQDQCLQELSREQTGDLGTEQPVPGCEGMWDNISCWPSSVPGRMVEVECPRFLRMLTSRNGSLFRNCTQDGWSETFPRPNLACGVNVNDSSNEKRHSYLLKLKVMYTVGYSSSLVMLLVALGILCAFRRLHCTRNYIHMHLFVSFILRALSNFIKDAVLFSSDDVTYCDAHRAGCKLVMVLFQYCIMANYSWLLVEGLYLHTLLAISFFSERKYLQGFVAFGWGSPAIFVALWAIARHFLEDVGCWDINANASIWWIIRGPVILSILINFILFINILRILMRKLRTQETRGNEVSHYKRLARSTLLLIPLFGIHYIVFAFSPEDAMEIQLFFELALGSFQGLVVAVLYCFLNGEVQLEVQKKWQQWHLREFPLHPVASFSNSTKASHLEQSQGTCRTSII
# method: cell-based or functional assay
Numbered stars: 1 amine (or outer) side, 2 acyl side, 3 side chain; on linkers, the order of the positions; unused ones are H or OH. Square brackets hold non-standard residues; d marks the D form. Side chains are listed from the residue outwards. Ends that are not written are not given here. * marks the point of attachment. C20 diacid = O=C(O)CCCCCCCCCCCCCCCCCCC(=O)*; γGlu = O=C(O)[C@H](CCC(=O)[*:2])N[*:1]; AEEA = NCCOCCOCC(=O)O; Aib = CC(C)(N)C(=O)O
endpointLabel: pEC50 hSCTR

Here is how some binders turned out for pEC50 hSCTR.
{"columns": ["binder", "pEC50 hSCTR"],
 "data": [
  ["H[Aib]EGTFTSDVSFLK([AEEA-AEEA-γGlu-C20 diacid])EEAAQQRFLEHLV-NH2 [SEQ ID NO: 83]", "5.8 -log M"],
  ["H[Aib]VGTFTSDVSYLKEEA[Aib]LQRFLEHLV-NH2 (not fully specified (residue 14)) [SEQ ID NO: 155]", "4.6 -log M"],
  ["H[Aib]EGTFTSDVSDLKEEA[Aib]LQRFLEHLV-NH2 (not fully specified (residue 14)) [SEQ ID NO: 153]", "6.5 -log M"]
]}

Request: Give recorded pEC50 hSCTR. H[Aib]EGTFTSDVSYLKEEA[Aib]IQRFLEHLV-NH2 (not fully specified (residue 14)) [SEQ ID NO: 139]
Result: 6.9 -log M

Request: Note down pEC50 hSCTR recorded for H[Aib]EGTFTSDVSFLK([AEEA-AEEA-γGlu-C20 diacid])E[Aib]AASQRFLEHLV-NH2 [SEQ ID NO: 74]
Result: 4.9 -log M
